- Tested on: Hep-G2 (human liver cancer)
- methodSummary: Cell proliferative assay (MTT), Hep-G2
- Assay type: cell-based
- runConditions: Homo sapiens, HepG2, Hep-G2 cells, read-out: Proliferative Inhibition (IC50, µM) Hep-G2
assayReadout: IC50

Illustrative cases are given below, each with its answer.
compound | assayReadout | measuredResult
CNC(=O)c1cc(Oc2cccc(C(=O)Nc3ccc(Cl)cc3)c2)ccn1 [Compound 11e] | IC50 | > 100 µM
CNC(=O)c1cc(Oc2cccc(C(=O)Nc3ccc(F)cc3)c2)ccn1 [Compound 11f] | IC50 | > 100 µM
COc1ccc(NC(=O)c2cccc(Oc3ncnc4sc5c(c34)CCN(C(=O)OC(C)(C)C)C5)c2)cc1OC [Compound 11g] | IC50 | > 100 µM

# evaluate next
Quote IC50 reported for CC(C)(C)OC(=O)N1CCc2c(sc3ncnc(Oc4ccc(NC(=O)C5(C(=O)Nc6ccc(F)cc6)CCC5)cc4F)c23)C1 [Compound 13i] please.
43.2 µM

Cited source for all entries: paper PMC6272887
